# Test system: B16-F10
# measurementProtocol: In vitro cytotoxicity against B16F10-mouse melanoma cells.
# Assay type: functional, cell-based
The compounds listed here are annotated with their log10 of IC50.
propertyName: log10 of IC50 (log10 of the value in ng/mL)

>>> recordedresult("CCC(C)(C)OC(=O)N[C@@H](c1ccccc1)[C@@H](O)C(=O)O[C@H]1C[C@@]2(O)[C@@H](OC(=O)c3ccccc3)[C@@H]3[C@]4(OC(C)=O)CO[C@@H]4C[C@H](O)[C@@]3(C)[C@@H](O)[C@H](OC(C)=O)C(=C1C)C2(C)C")
-0.52
>>> recordedresult("CC(=O)N[C@@H](c1ccccc1)[C@@H](O)C(=O)O[C@H]1C[C@@]2(O)[C@@H](OC(=O)c3ccccc3)[C@@H]3[C@]4(OC(C)=O)CO[C@@H]4C[C@H](O)[C@@]3(C)[C@@H](O)[C@H](OC(C)=O)C(=C1C)C2(C)C")
3.04
>>> recordedresult("CC(=O)O[C@@H]1C2=C(C)[C@@H](OC(=O)[C@H](O)[C@@H](NC(=O)OCC(C)C)c3ccccc3)C[C@@](O)([C@@H](OC(=O)c3ccccc3)[C@@H]3[C@]4(OC(C)=O)CO[C@@H]4C[C@H](O)[C@@]3(C)[C@H]1O)C2(C)C")
0.84
>>> recordedresult("CC(=O)O[C@@H]1C2=C(C)[C@@H](OC(=O)[C@H](O)[C@@H](NC(=O)C(C)(C)C)c3ccccc3)C[C@@](O)([C@@H](OC(=O)c3ccccc3)[C@@H]3[C@]4(OC(C)=O)CO[C@@H]4C[C@H](O)[C@@]3(C)[C@H]1O)C2(C)C")
1.54
>>> recordedresult("CC(=O)O[C@@H]1C2=C(C)[C@@H](OC(=O)[C@H](O)[C@@H](NC(=O)OCC(C)(C)C)c3ccccc3)C[C@@](O)([C@@H](OC(=O)c3ccccc3)[C@@H]3[C@]4(OC(C)=O)CO[C@@H]4C[C@H](O)[C@@]3(C)[C@H]1O)C2(C)C")
0.87
>>> recordedresult("CC(=O)O[C@@H]1C2=C(C)[C@@H](OC(=O)[C@H](O)[C@@H](NC(=O)OCc3ccccc3)c3ccccc3)C[C@@](O)([C@@H](OC(=O)c3ccccc3)[C@@H]3[C@]4(OC(C)=O)CO[C@@H]4C[C@H](O)[C@@]3(C)[C@H]1O)C2(C)C")
1.64
>>> recordedresult("CC(=O)O[C@@H]1C2=C(C)[C@@H](OC(=O)[C@H](O)[C@@H](NC(=O)NC(C)(C)C)c3ccccc3)C[C@@](O)([C@@H](OC(=O)c3ccccc3)[C@@H]3[C@]4(OC(C)=O)CO[C@@H]4C[C@H](O)[C@@]3(C)[C@H]1O)C2(C)C")
0.66
>>> recordedresult("CC(=O)O[C@H]1C(=O)[C@@]2(C)[C@H]([C@H](OC(=O)c3ccccc3)[C@]3(O)C[C@H](OC(=O)[C@H](O)[C@@H](NC(=O)c4ccccc4)c4ccccc4)C(C)=C1C3(C)C)[C@]1(OC(C)=O)CO[C@@H]1C[C@@H]2O [PACLITAXEL]")
0.61
>>> recordedresult("CC(=O)O[C@@H]1C2=C(C)[C@@H](OC(=O)[C@H](O)[C@@H](NC(=O)c3ccc(C)cc3)c3ccccc3)C[C@@](O)([C@@H](OC(=O)c3ccccc3)[C@@H]3[C@]4(OC(C)=O)CO[C@@H]4C[C@H](O)[C@@]3(C)[C@H]1O)C2(C)C")
1.40
>>> recordedresult("CC(=O)O[C@@H]1C2=C(C)[C@@H](OC(=O)[C@H](O)[C@@H](NC(=O)CC(C)(C)C)c3ccccc3)C[C@@](O)([C@@H](OC(=O)c3ccccc3)[C@@H]3[C@]4(OC(C)=O)CO[C@@H]4C[C@H](O)[C@@]3(C)[C@H]1O)C2(C)C")
0.75
>>> recordedresult("CC(=O)O[C@@H]1C2=C(C)[C@@H](OC(=O)[C@H](O)[C@@H](NC(=O)c3ccco3)c3ccccc3)C[C@@](O)([C@@H](OC(=O)c3ccccc3)[C@@H]3[C@]4(OC(C)=O)CO[C@@H]4C[C@H](O)[C@@]3(C)[C@H]1O)C2(C)C")
1.08
>>> recordedresult("CC(=O)O[C@@H]1C2=C(C)[C@@H](OC(=O)[C@H](O)[C@@H](NC(=O)OC(C)C)c3ccccc3)C[C@@](O)([C@@H](OC(=O)c3ccccc3)[C@@H]3[C@]4(OC(C)=O)CO[C@@H]4C[C@H](O)[C@@]3(C)[C@H]1O)C2(C)C")
0.34
>>> recordedresult("CC(=O)O[C@@H]1C2=C(C)[C@@H](OC(=O)[C@H](O)[C@@H](NC(=O)c3ccc(OCc4ccccc4)cc3)c3ccccc3)C[C@@](O)([C@@H](OC(=O)c3ccccc3)[C@@H]3[C@]4(OC(C)=O)CO[C@@H]4C[C@H](O)[C@@]3(C)[C@H]1O)C2(C)C")
1.40
>>> recordedresult("CC(=O)O[C@@H]1C2=C(C)[C@@H](OC(=O)[C@H](O)[C@@H](NC(=O)OC34CC5CC(CC(C5)C3)C4)c3ccccc3)C[C@@](O)([C@@H](OC(=O)c3ccccc3)[C@@H]3[C@]4(OC(C)=O)CO[C@@H]4C[C@H](O)[C@@]3(C)[C@H]1O)C2(C)C")
0.68
>>> recordedresult("CCOC(=O)N[C@@H](c1ccccc1)[C@@H](O)C(=O)O[C@H]1C[C@@]2(O)[C@@H](OC(=O)c3ccccc3)[C@@H]3[C@]4(OC(C)=O)CO[C@@H]4C[C@H](O)[C@@]3(C)[C@@H](O)[C@H](OC(C)=O)C(=C1C)C2(C)C")
1.26
